experiment notes: Cytotoxicity assay on PMA-differentiated THP-1 macrophage-like cells
Assay type: cell-based, human
experimental parameters: human, PMA-differentiated THP-1 macrophage-like cells; 72 h, scalar dilutions from 100 to 3.12 μM; mean and 95% CI
measurement name: CC50 at 72 h (µM)
Please reply with the bare figure in µM and do not write the unit itself.

CC50 at 72 h reading for NCC(c1c[nH]c2cc(Cl)ccc12)c1c[nH]c2cc(Cl)ccc12 : 39.4

CC50 at 72 h reading for NCC(c1c[nH]c2cc(F)ccc12)c1c[nH]c2cc(F)ccc12 : 40.4

CC50 at 72 h reading for COC(=O)c1ccc2c(C(CN)c3c[nH]c4cc(C(=O)OC)ccc34)c[nH]c2c1 : 40.1
